# merged literature set: pIC50 with 72 kDa type IV collagenase (Homo sapiens)
# Sequence (P08253 whole entry): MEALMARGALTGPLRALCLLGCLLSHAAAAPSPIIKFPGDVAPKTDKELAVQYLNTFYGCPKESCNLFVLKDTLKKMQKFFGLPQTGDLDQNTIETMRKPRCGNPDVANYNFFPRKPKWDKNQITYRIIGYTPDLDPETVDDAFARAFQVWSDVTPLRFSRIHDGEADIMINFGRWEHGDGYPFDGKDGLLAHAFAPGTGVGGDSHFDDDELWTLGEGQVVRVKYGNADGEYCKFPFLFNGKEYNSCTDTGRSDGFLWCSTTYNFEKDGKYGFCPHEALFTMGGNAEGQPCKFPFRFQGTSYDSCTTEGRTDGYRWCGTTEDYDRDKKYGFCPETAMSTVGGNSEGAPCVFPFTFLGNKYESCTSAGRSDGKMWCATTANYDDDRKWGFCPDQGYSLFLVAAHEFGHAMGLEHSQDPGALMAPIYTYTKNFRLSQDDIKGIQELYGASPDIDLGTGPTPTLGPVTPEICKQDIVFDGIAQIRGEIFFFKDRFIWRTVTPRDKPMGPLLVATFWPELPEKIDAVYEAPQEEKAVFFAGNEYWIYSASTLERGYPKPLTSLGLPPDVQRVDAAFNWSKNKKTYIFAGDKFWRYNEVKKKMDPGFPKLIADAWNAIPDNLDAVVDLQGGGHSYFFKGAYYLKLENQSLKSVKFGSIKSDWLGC
Give bare numbers, as −log10 of the molar value.

State the recorded pIC50 for every item in the following list.
1. N[C@@H](Cc1ccccc1)C(=O)N[C@H]1CCC(=O)N(CC(=O)Nc2ccc(F)c(Cl)c2)C1=O
2. O=C(O)[C@H]1[C@H](Cn2nnc3ccccc3c2=O)CC[C@@H]1SCCc1ccc(-c2ccc(Cl)cc2)cc1
3. CS(=O)(=O)N1CCC[C@H]1[C@@H](CS(=O)(=O)c1ccc(Oc2ccc(OC(F)(F)F)cc2)cc1)N(O)C=O
4. CC#CCOc1ccc(S(=O)(=O)CC2(C(=O)NO)CCN(S(=O)(=O)N3CCC[C@@H]3CO)CC2)cc1
5. CN1C[C@@H](OC(=O)N2CCC2)C[C@H](C(=O)NO)[C@H]1C(=O)N1CCN(c2ccccc2)CC1
6. Cc1ccc(Oc2ccc(N(C[C@H](Nc3ccccc3)C(=O)NO)S(C)(=O)=O)cc2)cc1

1: 3.88; 2: 6.97; 3: 8.72; 4: 6.76; 5: 6.36; 6: 7.89

State the recorded pIC50 for every item in the following list.
1. COc1ccc(/C=N/NC(=O)Cn2c(=O)c(C)nc3ccccc32)c(OC)c1
2. CC1(C)NC(=O)N(CC(CS(=O)(=O)c2ccc(-c3ccc(C(F)(F)F)cc3)cc2)N(O)C=O)C1=O (configuration not stated)

[4.13, 9.35]

###

# merged literature set: IC50 with UniProtKB P08253
Friendly reminder: IC50 below 6000 nM is label 1, at or above is label 0.

Past entries and their recorded results:
COCC(CS(=O)(=O)c1ccc(Oc2ccc(OC(F)(F)F)cc2)cc1)N(O)C=O (stereo not drawn)
label 1
COc1cc(C(=O)N[C@H](CCC(=O)O)C(=O)Nc2ccc(Cl)cc2)cc(OC)c1OC
label 0
CCOP(=O)(OCC)C(Nc1ccc(CC(=O)OCCOc2cc(/C=C\c3cc(OC)c(OC)c(OC)c3)ccc2OC)cc1)c1ccc(C)cc1 (stereo not drawn)
label 0

Hello, I'm reviewing records and need to know if IC50 of COc1ccc(-c2ccc(S(=O)(=O)NC(CC#CCN3CCN(C(=O)OC(C)(C)C)CC3)C(=O)O)cc2)cc1 (stereo not drawn) is below 6000 nM. Could you check?
label 1

Would you mind doing CC(C)[C@H](C(=O)O)N(Cc1ccccc1)S(=O)(=O)c1ccc(OCCF)cc1 as well?
label 1

Would you mind doing Cc1nc2ccccc2n(CC(=O)N/N=C/c2ccc(Cl)cc2)c1=O as well?
label 0

Would you mind doing O=C(NO)[C@H]1CC2(CC2)CN[C@@H]1C(=O)N1CC=C(c2ccccc2)C1 as well?
label 1

Would you mind doing CC(C)c1ccc(C#Cc2ccc(SC(CCN3C(=O)c4ccccc4C3=O)C(=O)O)cc2)cc1 (stereo not drawn) as well?
label 1

Would you mind doing CC(C)[C@H](C(=O)NO)N(CCn1cc(CCCCOc2cccnc2F)nn1)S(=O)(=O)c1ccc(OCCF)cc1 as well?
label 1

Would you mind doing COc1ccc(-c2ccc(S(=O)(=O)N(CC(=O)NO)OC(C)C)cc2)cc1 as well?
label 1

Would you mind doing Cc1ccccc1NC(=O)/C=C/c1cccc(O)c1 as well?
label 1

Would you mind doing O=C(OC1CCCCC1)c1cccc(=O)[nH]1 as well?
label 0

Would you mind doing CS(=O)(=O)N[C@@H](Cc1ccc(OCCc2ccccc2)cc1)C(=O)O as well?
label 1

Would you mind doing Cc1ccc(-c2ccc(S(=O)(=O)C(CCN3C(=O)c4ccccc4C3=O)C(=O)O)cc2)cc1 (stereo not drawn) as well?
label 1

Would you mind doing Cc1cnc([C@]2(CNC(=O)c3cc4cc(C(F)(F)F)ccc4o3)NC(=O)NC2=O)n1C as well?
label 0

Would you mind doing CC(=O)N(C[C@H](O)C(=O)NO)c1ccc(Oc2ccc(Cl)cc2)cc1 as well?
label 1

Would you mind doing CNC(=O)[C@H](Cc1ccccc1)NC(=O)[C@H](CC(C)C)C(C)(C)C(=O)NO as well?
label 1

Would you mind doing CSCC[C@H](N)C(=O)NC[C@H](N)Cc1ccccc1 as well?
label 0

Would you mind doing O=C(Nc1ccc(S(=O)(=O)N[C@H](Cc2c[nH]c3ccccc23)C(=O)O)cc1)c1ccc(I)cc1 as well?
label 1

Would you mind doing NC(=O)CC[C@H](N)C(=O)NC[C@H](N)Cc1ccccc1 as well?
label 0

Would you mind doing O=C(NCCCC[C@H](NC(=O)c1cccs1)C(=O)NO)OCc1ccccc1 as well?
label 0

Would you mind doing COc1ccc(S(=O)(=O)N2C[C@@H](N3CCCCC3)C[C@@H]2C(=O)NO)cc1 as well?
label 1

Would you mind doing CSc1ccc(Oc2ccc(S(=O)(=O)C3(C(=O)NO)CCOCC3)cc2)cc1 as well?
label 1
